Attribution: IntAct's records for PubMed 21505799

B1: E3 ubiquitin-protein ligase NHLRC1 (Homo sapiens), Q6VVB1 (parent)
chain: MAAEASESGPALHELMREAEISLLECKVCFEKFGHRQQRRPRNLSCGHVVCLACVAALAHPRTLALECPFCRRACRGCDTSDCLPVLHLIELLGSALRQSPAAHRAAPSAPGALTCHHTFGGWGTLVNPTGLALCPKTGRVVVVHDGRRRVKIFDSGGGCAHQFGEKGDAAQDIRYPVDVTITNDCHVVVTDAGDRSIKVFDFFGQIKLVIGGQFSLPWGVETTPQNGIVVTDAEAGSLHLLDVDFAEGVLRRTERLQAHLCNPRGVAVSWLTGAIAVLEHPLALGTGVCSTRVKVFSSSMQLVGQVDTFGLSLYFPSKITASAVTFDHQGNVIVADTSGPAILCLGKPEEFPVPKPMVTHGLSHPVALTFTKENSLLVLDTASHSIKVYKVDWG
partner: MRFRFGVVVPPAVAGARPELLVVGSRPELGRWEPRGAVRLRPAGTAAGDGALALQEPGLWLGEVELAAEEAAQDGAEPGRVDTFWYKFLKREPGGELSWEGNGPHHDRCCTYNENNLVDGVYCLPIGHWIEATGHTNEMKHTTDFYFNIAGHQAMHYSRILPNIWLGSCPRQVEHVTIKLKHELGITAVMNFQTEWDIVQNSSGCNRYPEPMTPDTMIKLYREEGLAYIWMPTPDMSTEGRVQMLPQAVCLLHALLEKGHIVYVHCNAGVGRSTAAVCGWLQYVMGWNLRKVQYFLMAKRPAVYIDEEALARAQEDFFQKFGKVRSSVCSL

Variants of: B1
test.conditions: with epm2a_human EPM2A

mutation.notation: D146N
effect of a mutation on the interaction: decreasing interaction

mutation.notation: L261P
effect of a mutation on the interaction: disrupting interaction

mutation.notation: P69A
effect of a mutation on the interaction: decreasing interaction

mutation.notation: C46Y
effect of a mutation on the interaction: disrupting interaction
